Ref: patent US20260209352A1

Listed here are binders together with their documented pKd.
- target-entity: Human CD3εδ-Fc (human) (UniProt P04234)
- Sequence (chain, as listed by the source mutant, chain 1 of 2): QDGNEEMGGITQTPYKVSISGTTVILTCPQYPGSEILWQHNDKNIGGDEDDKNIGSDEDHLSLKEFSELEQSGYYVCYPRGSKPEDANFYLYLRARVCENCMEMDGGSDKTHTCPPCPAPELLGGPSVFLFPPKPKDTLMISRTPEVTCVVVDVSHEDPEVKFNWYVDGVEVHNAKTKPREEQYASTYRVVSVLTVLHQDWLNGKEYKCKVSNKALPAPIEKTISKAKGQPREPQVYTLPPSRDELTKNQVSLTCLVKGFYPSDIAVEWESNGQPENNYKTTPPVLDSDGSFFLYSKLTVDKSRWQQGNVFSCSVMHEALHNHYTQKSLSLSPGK
- Sequence (P04234 22-105, stated change not applied, chain 2 of 2): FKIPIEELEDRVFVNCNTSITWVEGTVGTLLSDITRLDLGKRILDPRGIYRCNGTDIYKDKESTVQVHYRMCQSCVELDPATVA
- test-description: KD of scFv-Fc or IgG on human CD3εδ-Fc; instrument not given
pKd here: minus log base 10 of the concentration, concentration in moles per litre.

{"binder": "ADI-46379 (antibody, V domains shown, also called Ab41) VH: QVQLVQSGAEVKKPGASVKVSCKASGFNIKDYYMHWVRQAPGQRLEWIGWIDLENANTVYDAKFQGRVTITRDTSASAAYMELSSLRSEDTAVYYCARDAYGRYFYDVWGQGTLVTVSS VL: DIVMTQSPDSLAVSLGERATINCKSSQSLLNARTGKNYLAWYQQKPGQPPKLLIYWASARESGVPDRFSGSGSGTDFTLTISSLQAEDVAVYYCTQSYFRRTFGGGTKVEIK", "pKd": 9.00}
{"binder": "ADI-45972 (antibody, V domains shown, also called Ab8) VH: QVQLVQSGAEVKRPGASVKVSCKASGFNIKDYYMHWVRQAPGQRLEWIGWIDLENANTVYDAKFQGRVTITRDTSASTAYMELSSLRSEDTAVYYCARDAYGRYFYDVWGQGTLVTVSS VL: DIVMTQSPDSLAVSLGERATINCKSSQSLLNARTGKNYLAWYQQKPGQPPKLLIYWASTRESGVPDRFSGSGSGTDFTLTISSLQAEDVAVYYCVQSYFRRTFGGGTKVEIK", "pKd": 10.09}

Now look at this entry.
Prompt: So what does the record say about pKd for ADI-45961 (antibody, V domains shown, also called Ab24) VH: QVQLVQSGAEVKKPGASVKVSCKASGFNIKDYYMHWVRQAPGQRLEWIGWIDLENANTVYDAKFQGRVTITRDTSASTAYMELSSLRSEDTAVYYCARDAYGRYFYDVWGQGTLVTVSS VL: DIVMTQSPDSLAVSLGERATINCKSSQSLLNARTRRNYLAWYQQKPGQPPKLLIYWGSTRESGVPDRFSGSGSGTDFTLTISSLQAEDVAVYYCKQSYFRRTFGGGTKVEIK ?
Completion: 9.64
